The reader will find reported growth values listed item by item below.
system: OVCAR-4 ovarian; assay: NCI-60 one-dose screen, 48 h (100 = growth as untreated, 0 = no growth, -100 = all killed); conditions: 10 µM unless noted
Compounds without any hit were thinned out: in the full panel of roughly 83,000, 20% have a hit.
Number in %, nothing else.

- CN1CCCN(C(c2ccccc2)c2ccc(Br)cc2)CC1 (configuration not stated): 84.7
- Cc1cc(Nc2ccc3c(c2)OCO3)c2cc3c(cc2n1)OCO3: 81.4
- OC1Cc2ccccc2C1: 110
- O=S(=O)(O)C(C(I)I)S(=O)(=O)O: 107
- Cc1ccnc(Nc2nc3ccccc3[nH]2)n1: 109
- CCOC(=O)C(COS(C)(=O)=O)(COS(C)(=O)=O)C(=O)OCC: 107
- CCOC(=O)c1c(C)[nH]c(C)c1C=O: 107
- O=S(Cc1ccccc1)/C(=C/NC(=S)Nc1cc(Cl)ccc1Cl)c1ccccc1 (configuration not stated): 105

Incoming: For the molecule shown here, O=C1C=C(c2ccccc2)C(O)(c2ccccc2)C1 (configuration not stated) , give the reported growth.
Outgoing: 95.7

Incoming: And what about the molecule COC1OC(COC(C)=O)C(OC(C)=O)C(OC(C)=O)C1OC(C)=O (configuration not stated) ?
Outgoing: 86.5

Incoming: And what about the molecule `CCC(=O)C1C(=O)c2ccccc2C1=O` ?
Outgoing: 102
